Tested on: Mycosphaerella graminicola; Anamorph: Septoria tritici
Experiment: Leaf blotch of wheat (SEPTTR) disease control on wheat seedlings
Format: in vivo
Conditions: Zymoseptoria tritici, 72 h; Wheat Leaf Blotch; 3 Day Curative; high volume application, 100 ppm; read-out: Disease Control SEPTTR 3 DC 100 ppm
Protocol: Technical grades of materials were dissolved in acetone, which were then mixed with nine volumes of water containing 110 ppm Triton X-100. The fungicide solutions were applied onto wheat seedlings using an automated booth sprayer to run-off. […] All fungicides were evaluated using the aforementioned method for their activity vs. all target diseases. […] Percent disease control was calculated using the ratio of disease severity on treated plants relative to untreated plants.
Observed property: pest or weed control at 100 ppm

Reference set (4 entries):
                               smiles_input  test_value
0  CCCOC(=O)O[C@H]1CCC[C@H](NC(=O)c2nccc(OC)c2O)C(=O)O[C@@H](C)[C@@H]1Oc1cc(C)cc(C)c1    0 to 80%
1  COc1ccnc(C(=O)N[C@H]2CCC[C@H](OCC(C)C)[C@@H](OC)[C@H](C)OC2=O)c1O    0 to 80%
2  COc1ccnc(C(=O)N[C@H]2CCC[C@H](Oc3ccccc3)[C@@H](OC(=O)C3CC3)[C@H](C)OC2=O)c1OC(C)=O  80 to 100%
3  CCCOC(=O)O[C@H]1CCC[C@H](NC(=O)c2nccc(OC)c2OC(C)=O)C(=O)O[C@@H](C)[C@@H]1Oc1cc(C)cc(C)c1  80 to 100%

Q: For CCCO[C@H]1[C@H](C)OC(=O)[C@@H](NC(=O)c2nccc(OC)c2O)CCC[C@@H]1Oc1ccc(F)cc1 , what is its reported pest or weed control at 100 ppm?
Result: 0 to 80%

Q: Next molecule up: COc1ccnc(C(=O)N[C@H]2CCC[C@H](Oc3ccccc3)[C@@H](OC(=O)C3CCCC3)[C@H](C)OC2=O)c1OCOC(=O)C(C)C
Result: 80 to 100%

Q: Next molecule up: CCOCC(=O)OCOc1c(OC)ccnc1C(=O)N[C@H]1CCC[C@H](Oc2ccccc2)[C@@H](OC(=O)C2CCCC2)[C@H](C)OC1=O
Result: 0 to 80%

* * *

System: Puccinia triticina; Synonym: Puccinia recondite f. sp. tritici
Assay: Wheat brown rust (PUCCRT) disease control on wheat seedlings
Assay type: in vivo
Details: Puccinia triticina, 72 h; High volume application, 100 ppm; 3 Day Curative; read-out: PUCCRT 3DC disease control
Listed next: entries and their corresponding pest or weed control at 100 ppm.

In [3]: df
Out[3]:
                               smiles_input  test_value
0  COc1ccnc(C(=O)N[C@H]2CCC[C@H](OC3CCCC3)[C@@H](OCCCc3ccccc3)[C@H](C)OC2=O)c1O  80 to 100%
1  COc1ccnc(C(=O)N[C@H]2CCC[C@H](Oc3ccc(C)cc3)[C@@H](Oc3ccc(C)cc3)[C@H](C)OC2=O)c1O    0 to 80%
2  COc1ccnc(C(=O)N[C@H]2CCC[C@H](OC3CCCC3)[C@@H](OC3CCCC3)[C@H](C)OC2=O)c1OCOC(=O)C(C)C  80 to 100%

Read the next record carefully.
Q: For COc1ccnc(C(=O)N[C@H]2CCC[C@H](OC3CCCC3)[C@@H](OC(=O)C3CC3)[C@H](C)OC2=O)c1OCOC(C)=O , what is its reported pest or weed control at 100 ppm?
Result: 80 to 100%

Each recorded value in this set is attributed to patent US9681664B2.
